- System Name: human GLP-1R (Homo sapiens, UniProt P43220, G168S)
- Sequence (P43220 24-463 G168S limits assumed): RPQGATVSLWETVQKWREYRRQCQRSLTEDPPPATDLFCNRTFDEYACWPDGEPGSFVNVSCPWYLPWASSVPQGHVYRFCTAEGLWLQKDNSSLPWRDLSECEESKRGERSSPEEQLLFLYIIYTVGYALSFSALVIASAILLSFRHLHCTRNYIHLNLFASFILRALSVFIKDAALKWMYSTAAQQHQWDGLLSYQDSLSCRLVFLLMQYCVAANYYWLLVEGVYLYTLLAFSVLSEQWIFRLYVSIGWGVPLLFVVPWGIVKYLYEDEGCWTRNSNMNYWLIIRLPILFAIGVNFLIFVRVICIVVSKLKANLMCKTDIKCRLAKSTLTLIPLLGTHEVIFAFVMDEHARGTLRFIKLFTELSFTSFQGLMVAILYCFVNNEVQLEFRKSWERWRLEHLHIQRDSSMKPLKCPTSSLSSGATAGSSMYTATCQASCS
- Assay Protocol: CHO GLP-1R Clone H6—Assay 1: HTRF cAMP cell-based functional agonist assay (high GLP-1R density)
- Stated Conditions: read-out: Assay 1 EC50; CHO GLP-1R Clone H6, cAMP HTRF; geometric mean
Readout Label: pEC50
Scale explanation: pEC50 corresponds to minus log10 of a concentration expressed in moles per litre.

In: Let me know recorded pEC50 for O=C(O)c1ccc2nc(CN3CCC(c4cccc(OCc5ccc(Cl)cc5F)n4)CC3)n(C[C@H]3CCCO3)c2c1 [Example 11A-68] , thanks.
Out: 7.20

In: Please indicate pEC50 recorded for Cn1c(CN2CCC(c3cccc(OCc4ccc(Cl)cc4F)n3)CC2)nc2cnc(C(=O)O)cc21
Out: 6.82

In: For the molecule COCCn1c(CN2CCC(c3cccc(OCc4ccc(Cl)cc4F)n3)CC2)nc2ccc(C(=O)O)nc21 , give its measured pEC50 value.
Out: 7.62

In: Return the recorded pEC50 value; entry: C[C@H]1CN(c2cccc(OCc3ccc(Cl)cc3F)n2)CCN1Cc1nc2ccc(C(=O)O)cc2n1Cc1ncco1 [Example 10A-18]
Out: 8.80

In: Note down pEC50 recorded for COCCn1c(CN2CCN(c3cccc(OCc4ccc(Cl)cc4F)n3)CC23CC3)nc2ccc(C(=O)O)cc21 [Example 12A-03]
Out: 6.22

In: # return recorded pEC50 for entry Cn1c(CN2CCC(c3cccc(OCc4ccc(C(F)(F)F)cc4F)n3)CC2)nc2ccc(C(=O)O)cc21
Out: 7.10

In: Give the reported pEC50 for this molecule. N#Cc1ccc(COc2cccc(C3CCN(Cc4nc5ccc(C(=O)O)cc5n4Cc4cnco4)CC3)n2)c(F)c1 [Example 10A-43]
Out: 8.40

In: Could you please provide reported pEC50 for CCn1cncc1Cn1c(CN2CCC(c3cccc(OCc4ccc(C#N)cc4F)n3)CC2)nc2ccc(C(=O)O)nc21 [Example 10A-75] ? Thanks!
Out: 9.02

In: Give a short answer stating reported pEC50 for COCCn1c(CN2CCN(c3cccc(OCc4ccc(Cl)cc4F)n3)C[C@@H]2C2CC2)nc2ccc(C(=O)O)cc21 [Example 12A-04] .
Out: 6.60

In: State, in one line, measured pEC50 of O=C(O)c1ccc2nc(CN3CCC(c4cccc(OCc5ccc(Cl)cc5F)n4)CC3)n(CC3CCCOC3)c2c1 (centres unmarked) [Example 11A-40]
Out: 6.77

In: State its pEC50: N#Cc1ccc(COc2cccc(C3CCN(Cc4nc5ccc(C(=O)O)cc5n4CC4CCCO4)CC3)n2)cc1 (single isomer, unassigned; enantiomer 1) [Example 14A-01]
Out: 8.25

In: Read the entry Cn1c(CN2CCC(c3cccc(OCc4ccc(Cl)cc4)n3)CC2)nc2ccc(C(=O)O)cc21 [Example 9A-07] and write its reported pEC50.
Out: 6.77

In: Determine its reported pEC50: O=C(O)c1ccc2nc(CN3CCC(c4cccc(OCc5ccc(F)cc5F)n4)CC3)n(C[C@@H]3CCO3)c2n1
Out: 9.02

In: Tell me pEC50 reported for O=C(O)c1ccc2nc(CN3CCC(c4cccc(OCc5ccc(Cl)cc5F)n4)CC3)n(CC3CCOCC3)c2c1 [Example 11A-49]
Out: 6.42
